A collection of variants and their measured protein stability index
B1: RSPH3 (parent)
chain: LELQRQREARKRALARKQAQEQLR

variants of: B1; experiment: protein stability index of a GFP-peptide fusion (GPS, HEK-293T) (PSI 1-6); higher = more stable; details: c terminus: a fixed tail appended;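 note: lentivirally expressed fusions sorted by FACS into six bins by GFP to DsRed ratio, PSI derived from sequencing read proportions per bin multiplied by bin number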

Worked examples follow.
L3K	4.17
A15L	4.05
R12S	3.81
L3M	3.6
A13D	4.07
R24G	4.13
Q6S	3.76
Q22P	3.79
L3V	4.29
A9E	3.85

Which protein stability index value is on record for "A15I" ?
3.15

Which protein stability index value is on record for "L1K" ?
3.78

Which protein stability index value is on record for "E21I" ?
3.33

Which protein stability index value is on record for "Q22E" ?
3.8

Which protein stability index value is on record for "A13N" ?
4.25

Which protein stability index value is on record for "L14Y" ?
3.22

Which protein stability index value is on record for "R10A" ?
4.57

Which protein stability index value is on record for "L23A" ?
4.96

Which protein stability index value is on record for "Q18K" ?
3.39

Which protein stability index value is on record for "A15F" ?
3.56

Which protein stability index value is on record for "A13V" ?
3.78

Which protein stability index value is on record for "A19L" ?
3.09

Which protein stability index value is on record for "L3P" ?
4.18
